Give IC50 for every item shown.
- EXPERIMENTAL_TARGET: Serine/threonine-protein kinase B-raf (Homo sapiens, UniProt P15056, V600E)
- Sequence (P15056 2-766 V600E limits assumed): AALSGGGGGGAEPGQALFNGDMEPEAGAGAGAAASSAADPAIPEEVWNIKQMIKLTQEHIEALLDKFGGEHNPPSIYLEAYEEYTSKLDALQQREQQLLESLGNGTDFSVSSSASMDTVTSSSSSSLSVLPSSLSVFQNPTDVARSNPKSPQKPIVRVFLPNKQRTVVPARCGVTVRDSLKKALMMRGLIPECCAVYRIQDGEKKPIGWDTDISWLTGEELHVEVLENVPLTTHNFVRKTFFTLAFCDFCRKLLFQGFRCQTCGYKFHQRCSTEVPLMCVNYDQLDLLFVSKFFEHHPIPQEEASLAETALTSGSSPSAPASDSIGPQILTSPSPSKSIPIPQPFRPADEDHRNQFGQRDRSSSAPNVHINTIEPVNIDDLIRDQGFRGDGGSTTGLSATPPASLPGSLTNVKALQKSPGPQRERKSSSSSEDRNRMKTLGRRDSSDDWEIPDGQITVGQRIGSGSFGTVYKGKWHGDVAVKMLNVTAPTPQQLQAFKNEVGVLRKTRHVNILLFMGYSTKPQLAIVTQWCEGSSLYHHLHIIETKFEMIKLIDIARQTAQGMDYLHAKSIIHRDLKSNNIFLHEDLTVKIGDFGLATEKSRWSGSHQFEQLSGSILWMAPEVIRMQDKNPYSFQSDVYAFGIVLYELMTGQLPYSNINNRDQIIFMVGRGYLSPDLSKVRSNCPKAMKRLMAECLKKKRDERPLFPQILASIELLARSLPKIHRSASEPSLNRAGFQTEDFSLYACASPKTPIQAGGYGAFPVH
- PROTOCOL_NOTES: Inhibition of human BRAF V600E mutant expressed in Sf9 cells
Answers are plain numbers, in µM.

Known IC50 results, listed for orientation:
[[record]]
smiles_representation = "COc1ccc(NC(=O)c2cccc(OC(F)(F)F)c2)cc1Oc1ccnc2[nH]c(=O)[nH]c12"
measured_endpoint = "IC50"
measurement = 0.34

[[record]]
smiles_representation = "O=C(Nc1cccc(Oc2ccnc3[nH]c(=O)[nH]c23)c1)c1cccc(Br)c1"
measured_endpoint = "IC50"
measurement = 1.56

[[record]]
smiles_representation = "O=C(Nc1cccc(Oc2ccnc3[nH]c(=O)[nH]c23)c1)c1ccc(Cl)cc1"
measured_endpoint = "IC50"
measurement = 68

[[record]]
smiles_representation = "O=C(Nc1cccc(Oc2ccnc3[nH]c(=O)[nH]c23)c1)c1ccccc1"
measured_endpoint = "IC50"
measurement = 25.2

[[record]]
smiles_representation = "O=C(Nc1cccc(Oc2ccnc3[nH]c(=O)[nH]c23)c1)c1ccnc(Cl)c1"
measured_endpoint = "IC50"
measurement = 93

[[record]]
smiles_representation = "O=C(Nc1cccc(Oc2ccnc3[nH]c(=O)[nH]c23)c1)c1cc(Cl)cc(OC(F)(F)F)c1"
measured_endpoint = "IC50"
measurement = 0.071

[[record]]
smiles_representation = "O=C(Nc1cccc(Oc2ccnc3[nH]c(=O)[nH]c23)c1)c1cc(Cl)cc(C(F)(F)F)c1"
measured_endpoint = "IC50"
measurement = 0.69

[[record]]
smiles_representation = "CC(C)c1cc(C(=O)Nc2cccc(Oc3ccnc4[nH]c(=O)[nH]c34)c2)n(-c2ccccc2)n1"
measured_endpoint = "IC50"
measurement = 0.087


Look up IC50 for the entries below, preserving their order.
1. O=C(Nc1ccc(Cl)c(C(F)(F)F)c1)c1cccc(Oc2ccnc3[nH]c(=O)[nH]c23)c1
2. CCC(C)(C)c1cccc(C(=O)Nc2cccc(Oc3ccnc4[nH]c(=O)[nH]c34)c2)c1
3. O=C(Nc1cc(Cl)cc(Oc2ccnc3[nH]c(=O)[nH]c23)c1)c1cccc(OC(F)(F)F)c1
4. O=C(Nc1cc(Oc2ccnc3[nH]c(=O)[nH]c23)c(F)cc1F)c1cccc(OC(F)(F)F)c1
5. O=c1[nH]c2nccc(Oc3ccc(NS(=O)(=O)c4ccccc4)cc3)c2[nH]1

Result:
1: 0.09; 2: 0.04; 3: 0.033; 4: 0.01; 5: 0.85
